System: castrated (CX) immature male rats
Test: Systemic androgenic (agonistic) activity in orchidectomized (CX) immature male rats
Type: in vivo, rat
Settings: 0.1 mg/rat/po, 7 days, seminal vesicles weight
Method: Immature male rats (Crl:CD(SD)Br) 22 to 24-day old weighting 60-80 g at start of treatment were obtained from Charles-River, Inc. (St-Constant, Quebec, Canada) and housed up to 5 per cage in plastic bins in a temperature (23±1° C.)- and light (12 h light/day, lights on at 7 h15)-controlled environment. The rats were fed rodent chow and tap water ad libitum. […]
Lab note: anything with CX Agonistic activity % Stimulation SV at or over 40% counts as Yes; the rest go in No.

Consider the following illustrative entries.
>  <COMPOUND SMILES>
CC1(C)C(=O)N(c2ccc(C#N)c(C(F)(F)F)c2)C(=S)N1CCCOc1ccc2ncncc2c1

>  <LABEL CLASS>
No

$$$$
>  <COMPOUND SMILES>
Cc1c(N2C(=O)C(C)(C)N(CCCOc3ccc(-c4ccncc4)cc3F)C2=S)ccc(C#N)c1C(F)(F)F

>  <LABEL CLASS>
Yes

$$$$
>  <COMPOUND SMILES>
Cc1c(N2C(=O)C(C)(C)N(CCCOc3ccc(-c4ccncc4Cl)cc3)C2=S)ccc(C#N)c1Cl

>  <LABEL CLASS>
Yes

$$$$
>  <COMPOUND SMILES>
Cc1c(N2C(=O)C(C)(C)N(CCCOc3ccc(-c4ccncc4)cc3Cl)C2=S)ccc(C#N)c1C(F)(F)F

>  <LABEL CLASS>
No

$$$$
>  <COMPOUND SMILES>
Cc1c(N2C(=O)C(C)(C)N(CCCOc3ccc(-c4ccnc(F)c4)cc3)C2=S)ccc(C#N)c1Cl

>  <LABEL CLASS>
Yes

$$$$
>  <COMPOUND SMILES>
Cc1c(N2C(=O)C(C)(C)N(CCCOc3ccc(-c4ccccn4)cc3F)C2=S)ccc(C#N)c1Cl

>  <LABEL CLASS>
No

$$$$
>  <COMPOUND SMILES>
Cc1c(N2C(=O)C(C)(C)N(CCCOc3ccc(-c4ccncc4)cc3Cl)C2=S)ccc(C#N)c1Cl

>  <LABEL CLASS>
Yes

$$$$

Does the reported CX Agonistic activity % Stimulation SV for Cc1c(N2C(=O)C(C)(C)N(CCCOc3ccc(-c4ccncc4)c(Cl)c3)C2=S)ccc(C#N)c1Cl fall at or above the 40% mark?
Yes

====

biological target: UniProtKB P10275; test: Androgen receptor assay: [3H]R1881 displacement, cytosol of HEK-293 cells transfected with hAR (hydroxylapatite assay); format: binding; conditions: relative binding affinity, R1881 = 100; […]
Sequence (P10275 whole entry): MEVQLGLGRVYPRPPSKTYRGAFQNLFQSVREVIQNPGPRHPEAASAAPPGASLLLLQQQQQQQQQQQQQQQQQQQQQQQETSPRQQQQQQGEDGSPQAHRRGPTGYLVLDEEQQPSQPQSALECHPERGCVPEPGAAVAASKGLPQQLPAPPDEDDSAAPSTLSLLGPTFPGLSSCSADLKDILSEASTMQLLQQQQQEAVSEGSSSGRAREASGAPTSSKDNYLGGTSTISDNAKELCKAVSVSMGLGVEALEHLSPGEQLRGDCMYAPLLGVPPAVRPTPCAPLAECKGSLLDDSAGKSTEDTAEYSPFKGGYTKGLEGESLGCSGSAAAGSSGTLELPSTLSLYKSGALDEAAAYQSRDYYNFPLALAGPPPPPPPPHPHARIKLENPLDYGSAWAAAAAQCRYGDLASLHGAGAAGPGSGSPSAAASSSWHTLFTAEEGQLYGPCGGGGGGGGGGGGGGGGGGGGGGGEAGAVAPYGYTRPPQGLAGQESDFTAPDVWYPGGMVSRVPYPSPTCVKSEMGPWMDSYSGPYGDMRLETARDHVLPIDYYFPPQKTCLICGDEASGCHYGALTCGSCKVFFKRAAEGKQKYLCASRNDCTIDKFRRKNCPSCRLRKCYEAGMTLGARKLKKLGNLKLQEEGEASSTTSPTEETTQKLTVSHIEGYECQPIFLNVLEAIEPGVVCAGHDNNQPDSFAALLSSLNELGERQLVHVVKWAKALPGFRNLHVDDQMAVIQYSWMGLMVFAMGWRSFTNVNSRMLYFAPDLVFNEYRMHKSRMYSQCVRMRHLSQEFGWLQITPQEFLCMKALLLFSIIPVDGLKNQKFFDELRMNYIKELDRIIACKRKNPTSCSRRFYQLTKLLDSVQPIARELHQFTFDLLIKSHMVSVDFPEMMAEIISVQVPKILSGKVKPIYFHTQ
For each of the compounds below, state its Human Androgen Receptor Binding RBA (%) R1881 = 100.
Answers are plain numbers, in %.

Reference set (3 entries):
>  <COMPOUND>
Cc1c(N2C(=O)C(C)(C)N(CCCOc3ccc(-c4ccncc4)c(C#N)c3)C2=S)ccc(C#N)c1Cl [EM-8933]

>  <QUANTITATIVE READOUT>
134

$$$$
>  <COMPOUND>
Cc1c(N2C(=O)C(C)(C)N(CCCOc3ccc(-c4ccncc4)cc3Cl)C2=S)ccc(C#N)c1Cl [EM-8799]

>  <QUANTITATIVE READOUT>
877

$$$$
>  <COMPOUND>
CC1(C)C(=O)N(c2ccc(C#N)c(C(F)(F)F)c2)C(=O)N1Cc1ccc(-c2ccncc2)c(F)c1 [EM-9227]

>  <QUANTITATIVE READOUT>
4.9

$$$$

Next up:
Dear colleague, I am looking for the recorded Human Androgen Receptor Binding RBA (%) R1881 = 100 of the following compound: Cc1ccc2cc(OCCCN3C(=O)N(c4ccc(C#N)c(C(F)(F)F)c4)C(=O)C3(C)C)ccc2n1 [EM-9090]
2.5
